# Tested on: NCI-H226 lung
# ASSAY_SUMMARY: NCI-60 one-dose screen, 48 h (100 = growth as untreated, 0 = no growth, -100 = all killed)
# REPORTED_CONDITIONS: 10 µM unless noted
The panel holds about 83,000 compounds, 20% with a hit somewhere; the sample as a whole holds those more often.
Lab note - cut at 80% for growth: satisfied if strictly below, not satisfied if not.

growth strictly < 80% for this compound? COc1cc(/C=N/n2cnc3oc(-c4ccccc4)cc3c2=N)cc(CN2CCOCC2)c1O
satisfied

growth strictly < 80% for this compound? COc1ccc(Cn2cc3c(c2-c2cc(OC)c(OC)c(OC)c2)CCCc2cnoc2-3)cc1N
satisfied

growth strictly < 80% for this compound? O=C(CCCCCCN1CC(=O)N2[C@@H](c3cccc(Br)c3)c3[nH]c4ccccc4c3C[C@H]2C1=O)NO
not satisfied

growth strictly < 80% for this compound? COc1ccc(/C=N\NC(=O)c2ccc3nc(-c4ccc(Br)cc4)[nH]c3c2)cc1
satisfied

growth strictly < 80% for this compound? CCCCOc1ccc(S(=O)(=O)N2CCN(c3nccc(N4CCOCC4)n3)CC2)cc1
satisfied

growth strictly < 80% for this compound? O=C(/C=C/c1cccc(O)c1)c1ccc(O)cc1
not satisfied

growth strictly < 80% for this compound? COc1ccc(-c2nc(SCC(C)C)nc(N/N=C\c3cccc([N+](=O)[O-])c3)c2C#N)cc1
satisfied

growth strictly < 80% for this compound? CCn1c2ccc(/C=N/NS(=O)(=O)CCN(C)C)cc2c2cc(/C=N/NS(=O)(=O)CCN(C)C)ccc21
not satisfied

growth strictly < 80% for this compound? CC(C)(C)OC(=O)N1CCN(S(=O)(=O)/N=C2\NC(=O)NC2=C(Cl)Cl)CC1
not satisfied

growth strictly < 80% for this compound? CC1CCc2c(sc3nc(SCC(=O)N/N=C/c4cccc(O)c4O)n(-c4ccccc4)c(=O)c23)C1 (stereo not drawn)
not satisfied

growth strictly < 80% for this compound? CCOC(=O)c1c(NCC(=O)Nc2ccc(Br)cc2)sc2c1CCCC2
satisfied

growth strictly < 80% for this compound? CN1CCN(c2ccc3c(C(N)=O)c(NC(=O)c4ccc(C(C)(C)C)cc4)sc3c2)CC1
not satisfied

growth strictly < 80% for this compound? CC1CCc2c(sc3nc(SCC(=O)N/N=C/c4ccc(Cl)cc4)n(-c4ccccc4)c(=O)c23)C1 (stereo not drawn)
not satisfied

growth strictly < 80% for this compound? O=C1c2c(c3c4cc(Br)ccc4[nH]c3c3ccc4ccccc4c23)C(=O)N1CCN1CCCCC1
satisfied

growth strictly < 80% for this compound? C=C(C)C(=O)O[C@H]1C[C@@]2(C)OC(=CC2=O)/C(C)=C\[C@H]2OC(=O)C(=C)[C@H]12
satisfied
